The molecules listed here are annotated with their inhibition at 100 µM.
- Tested system: HEK293 cells forced to express URAT1 (Homo sapiens)
- Construct: host or cells: HEK293
- Sequence (Q96S37 whole entry): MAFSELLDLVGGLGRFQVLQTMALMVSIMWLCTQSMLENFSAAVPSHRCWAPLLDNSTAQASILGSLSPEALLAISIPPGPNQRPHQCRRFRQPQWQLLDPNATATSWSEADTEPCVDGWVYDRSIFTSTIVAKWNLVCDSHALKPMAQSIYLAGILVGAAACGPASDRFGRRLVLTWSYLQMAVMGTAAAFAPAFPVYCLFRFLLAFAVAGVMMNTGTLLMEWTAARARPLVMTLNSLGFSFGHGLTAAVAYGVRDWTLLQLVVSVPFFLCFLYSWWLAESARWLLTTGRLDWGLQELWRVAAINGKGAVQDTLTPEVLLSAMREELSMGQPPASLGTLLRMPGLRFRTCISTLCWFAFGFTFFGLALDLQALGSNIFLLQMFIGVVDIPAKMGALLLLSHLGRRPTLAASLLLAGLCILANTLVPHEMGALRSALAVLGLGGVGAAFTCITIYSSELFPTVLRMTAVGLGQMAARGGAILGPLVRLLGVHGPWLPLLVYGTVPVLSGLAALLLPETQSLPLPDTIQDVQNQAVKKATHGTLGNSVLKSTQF
- Experimental details: URAT1 inhibitory effect, [8-14C] uric acid uptake
- Type: cell-based
- Assay context: test compound 100 μmol/L, 20 μmol/L uric acid, 5 minutes uptake

| Molecule | Unit of measure | inhibition at 100 µM |
| --- | --- | --- |
| N#Cc1cn(-c2ccc(-c3nnn[nH]3)cc2)c2ccccc12 [XO-CH150] | % | 79.3 |
| N#Cc1cn(-c2ccc(C(=O)O)cc2)c2ncc(Br)cc12 [XO-KT16] | % | 92.4 |
| N#Cc1cn(-c2ccc(C(=O)O)cc2)c2cccc(Cl)c12 [XO-CH201] | % | 88.6 |
| N#Cc1cn(-c2ccc(C(=O)O)cc2)c2cc3c(cc12)OCO3 [XO-CH199] | % | 91.5 |
| N#Cc1cn(-c2ccc(C(=O)O)cc2)cc1-c1ccccc1C(F)(F)F [XO-B412] | % | 50.5 |
| COc1cccc2c1c(C#N)cn2-c1ccc(C(=O)O)cc1 [XO-CH211] | % | 81.1 |
| COc1ccc2c(C#N)cn(-c3ccc(C(=O)O)cc3)c2c1 [XO-CH207] | % | 93.9 |
| COc1ccc2c(c1)c(C#N)cn2-c1ccc(C(=O)O)cc1 [XO-CH183] | % | 80.6 |
| Cc1ccsc1-c1cn(-c2ccc(C(=O)O)cc2)cc1C#N [XO-B407] | % | 55.5 |
| N#Cc1cn(-c2ccc(C(=O)O)cc2)cc1-c1cccs1 [XO-B401] | % | 59.5 |
| N#Cc1nn(-c2ccc(C(=O)O)cc2)c2ccccc12 [XO-KT30] | % | 79.9 |
| N#Cc1cn(-c2ccc(C(=O)O)cc2)nc1-c1ccsc1 [XO-TT571] | % | 70.8 |
| N#Cc1cn(-c2ccc(C(=O)O)cc2)c2ccc(F)cc12 [XO-CH168] | % | 92.5 |
| N#Cc1cn(-c2ccc(C(=O)O)cc2)nc1-c1cccs1 [XO-TT508] | % | 67.1 |
| N#Cc1cn(-c2ccc(C(=O)O)cc2)c2cc(C(F)(F)F)ccc12 [XO-CH206] | % | 98.1 |
| N#Cc1cn(-c2ccc(C(=O)O)cc2)cc1-c1ccsc1 [XO-B418] | % | 62.6 |
| N#Cc1cn(-c2ccc(C(=O)O)cc2)c2cc(Cl)ccc12 [XO-CH209] | % | 97.1 |
| Cc1cccc2c(C#N)cn(-c3ccc(C(=O)O)cc3)c12 [XO-CH205] | % | 95.7 |
| N#Cc1cn(-c2ccc(C(=O)O)cc2)c2nc(Cl)ccc12 [XO-KT18] | % | 95.2 |
| Cc1c(C#N)c2ccccc2n1-c1ccc(C(=O)O)cc1 [XO-CH172] | % | 88.3 |
| N#Cc1cn(-c2ccc(C(=O)O)cc2)cc1-c1ccc2c(c1)OCCO2 [XO-B434] | % | 68.8 |

----------
- Tested system: xanthine oxidase (from buttermilk) (Bos taurus, UniProt P80457)
- Construct: xanthine oxidase (from buttermilk; biozyme laboratories); purchased biozyme laboratories; host or cells: buttermilk (natural source)
- Sequence (P80457 whole entry): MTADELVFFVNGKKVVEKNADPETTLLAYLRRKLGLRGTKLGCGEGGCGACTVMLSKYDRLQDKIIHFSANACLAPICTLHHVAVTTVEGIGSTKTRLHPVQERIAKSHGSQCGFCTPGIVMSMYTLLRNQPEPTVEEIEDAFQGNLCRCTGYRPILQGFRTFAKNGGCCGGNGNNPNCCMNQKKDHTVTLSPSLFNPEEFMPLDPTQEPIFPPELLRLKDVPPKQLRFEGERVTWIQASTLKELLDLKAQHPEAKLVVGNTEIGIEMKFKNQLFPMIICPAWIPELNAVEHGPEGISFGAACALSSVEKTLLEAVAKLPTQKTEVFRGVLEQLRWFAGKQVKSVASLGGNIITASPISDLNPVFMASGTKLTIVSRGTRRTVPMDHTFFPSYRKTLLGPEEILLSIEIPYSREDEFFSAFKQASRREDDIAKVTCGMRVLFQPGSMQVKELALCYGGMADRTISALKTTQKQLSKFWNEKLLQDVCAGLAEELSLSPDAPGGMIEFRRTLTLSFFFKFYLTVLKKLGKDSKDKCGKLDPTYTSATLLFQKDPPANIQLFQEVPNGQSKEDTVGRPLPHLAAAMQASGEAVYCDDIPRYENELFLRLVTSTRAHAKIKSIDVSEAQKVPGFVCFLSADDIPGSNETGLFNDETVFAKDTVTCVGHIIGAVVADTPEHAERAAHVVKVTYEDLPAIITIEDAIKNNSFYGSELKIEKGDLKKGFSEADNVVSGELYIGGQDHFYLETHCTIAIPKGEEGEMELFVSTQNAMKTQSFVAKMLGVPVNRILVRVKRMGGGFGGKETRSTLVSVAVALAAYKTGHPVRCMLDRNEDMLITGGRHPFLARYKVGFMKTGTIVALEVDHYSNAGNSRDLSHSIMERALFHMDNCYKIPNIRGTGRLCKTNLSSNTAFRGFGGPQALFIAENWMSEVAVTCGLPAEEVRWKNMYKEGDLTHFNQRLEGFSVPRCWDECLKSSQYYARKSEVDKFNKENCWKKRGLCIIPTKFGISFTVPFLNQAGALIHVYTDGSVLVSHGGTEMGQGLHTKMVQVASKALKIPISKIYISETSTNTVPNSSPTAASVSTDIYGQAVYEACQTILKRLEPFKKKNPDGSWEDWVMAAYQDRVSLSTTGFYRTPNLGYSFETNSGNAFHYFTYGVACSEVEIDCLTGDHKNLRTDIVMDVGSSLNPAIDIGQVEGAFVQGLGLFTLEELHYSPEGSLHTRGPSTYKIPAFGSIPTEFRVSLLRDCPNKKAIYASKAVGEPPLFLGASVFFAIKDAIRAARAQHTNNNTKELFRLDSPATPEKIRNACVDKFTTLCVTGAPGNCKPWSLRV
- Experimental details: Xanthine oxidase inhibitory effect
- Assay type: biochemical
- Assay context: 100 μmol/L xanthine, 5 mU/mL enzyme; read-out: X.O. inhibition IC50
Threshold 20 nM: IC50 strictly smaller gives Y, otherwise N.

| Compound | Tested system | Class name |
| --- | --- | --- |
| N#Cc1cn(-c2ccc(C(=O)O)cc2)cc1-c1cccs1 [XO-B401] | xanthine oxidase (from buttermilk) (Bos taurus, UniProt P80457) | Y |
| N#Cc1cn(-c2ccc(C(=O)O)cc2)c2ccccc12 [XO-CH146] | xanthine oxidase (from buttermilk) (Bos taurus, UniProt P80457) | N |
| N#Cc1cn(-c2ccc(C(=O)O)cc2)cc1-c1ccc(Cl)cc1 [XO-B421] | xanthine oxidase (from buttermilk) (Bos taurus, UniProt P80457) | Y |
| N#Cc1cn(-c2ccc(-c3nnn[nH]3)cc2)c2ccccc12 [XO-CH150] | xanthine oxidase (from buttermilk) (Bos taurus, UniProt P80457) | N |
| N#Cc1cn(-c2ccc(-c3nnn[nH]3)cc2)nc1-c1ccccc1 [XO-TT473] | xanthine oxidase (from buttermilk) (Bos taurus, UniProt P80457) | Y |
| COc1cccc(-c2nn(-c3ccc(C(=O)O)cc3)cc2C#N)c1 [XO-TT552] | xanthine oxidase (from buttermilk) (Bos taurus, UniProt P80457) | Y |
| N#Cc1cn(-c2ccc(C(=O)O)cc2)nc1-c1ccsc1 [XO-TT571] | xanthine oxidase (from buttermilk) (Bos taurus, UniProt P80457) | Y |
| Cc1ccccc1-c1nn(-c2ccc(C(=O)O)cc2)cc1C#N [XO-TT573] | xanthine oxidase (from buttermilk) (Bos taurus, UniProt P80457) | Y |
| N#Cc1cn(-c2ccc(C(=O)O)cc2)nc1-c1cccs1 [XO-TT508] | xanthine oxidase (from buttermilk) (Bos taurus, UniProt P80457) | Y |
| N#Cc1cn(-c2ccc(C(=O)O)cc2)c2cc(Cl)ccc12 [XO-CH209] | xanthine oxidase (from buttermilk) (Bos taurus, UniProt P80457) | N |
